Sourced from patent US20130129722A1

molecular target: Dimeric Mouse Ang-2FD conjugated to human IgG1 (mouse (Mus musculus)); assay: SPR, human IgG1 antibody captured
Sequence (chain, as listed by the source limits assumed): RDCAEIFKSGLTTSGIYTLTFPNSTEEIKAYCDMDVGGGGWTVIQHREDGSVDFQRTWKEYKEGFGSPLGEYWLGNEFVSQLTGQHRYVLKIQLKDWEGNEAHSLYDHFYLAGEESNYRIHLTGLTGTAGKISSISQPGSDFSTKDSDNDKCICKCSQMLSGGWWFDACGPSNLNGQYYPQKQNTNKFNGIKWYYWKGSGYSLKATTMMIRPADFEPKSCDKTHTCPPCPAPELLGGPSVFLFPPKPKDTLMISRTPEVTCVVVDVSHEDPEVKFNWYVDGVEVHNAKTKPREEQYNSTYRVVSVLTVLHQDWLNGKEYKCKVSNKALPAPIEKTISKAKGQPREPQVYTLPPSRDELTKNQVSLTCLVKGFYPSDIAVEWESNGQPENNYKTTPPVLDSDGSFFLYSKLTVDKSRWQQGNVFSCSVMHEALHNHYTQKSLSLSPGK
Quantity: T1/2 (min)
API: value field is a number in min; no unit string.

{"Binder": "H1H742N (antibody, V domains shown) VH: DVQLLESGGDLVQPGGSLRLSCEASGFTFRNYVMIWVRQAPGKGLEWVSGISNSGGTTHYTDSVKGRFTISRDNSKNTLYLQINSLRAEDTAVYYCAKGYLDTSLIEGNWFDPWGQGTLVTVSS VL: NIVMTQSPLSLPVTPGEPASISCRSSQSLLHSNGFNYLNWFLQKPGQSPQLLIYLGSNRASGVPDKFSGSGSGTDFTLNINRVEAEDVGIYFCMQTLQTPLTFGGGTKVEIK", "Unit Descriptor": "min", "Assay Result": 58}

// switching to the query binder
Data request: Tell me its T1/2 given H1H728N (antibody, V domains shown) VH: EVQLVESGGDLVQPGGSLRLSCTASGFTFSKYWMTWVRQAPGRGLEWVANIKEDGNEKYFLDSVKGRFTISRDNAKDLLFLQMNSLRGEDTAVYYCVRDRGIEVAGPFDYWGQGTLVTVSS VL: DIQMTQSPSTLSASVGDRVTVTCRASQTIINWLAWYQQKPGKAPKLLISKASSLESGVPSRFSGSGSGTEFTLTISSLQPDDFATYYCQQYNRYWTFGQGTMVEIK as the entry.
Data returned: 20
